SYSTEM_NAME: Proteasome subunit beta type-8 (Homo sapiens)
RUN_DESCRIPTION: Inhibition of human immunoproteasome beta 5i subunit using Suc-LLVY-AMC as substrate preincubated for 30 mins followed by substrate addition and measured for 120 mins by fluorescence based assay
Exercise: for every item that follows, state its recorded IC50.
Express the result in nM but write the number alone.

### Prompt Look up and report measured IC50 for this entry: Cc1c(-c2nsc(=O)o2)c(=O)oc2cc3occ(C4CCCCC4)c3cc12
### Response 106

### Prompt Look up and report measured IC50 for this entry: COc1cccc(-c2coc3cc4oc(=O)c(-c5nsc(=O)o5)c(C)c4cc23)c1
### Response 226

### Prompt Look up and report measured IC50 for this entry: Cc1cccc(-c2coc3cc4oc(=O)c(-c5nsc(=O)o5)c(C)c4cc23)c1
### Response 365

### Prompt Look up and report measured IC50 for this entry: Cc1c(CCC(=O)ON2C(=O)CCC2=O)c(=O)oc2cc3occ(C4CCCCC4)c3cc12
### Response 1830

### Prompt Look up and report measured IC50 for this entry: Cc1c(-c2nsc(=O)o2)c(=O)oc2cc3occ(-c4cccs4)c3cc12
### Response 141

### Prompt Look up and report measured IC50 for this entry: Cc1c(-c2nsc(=O)o2)c(=O)oc2cc3occ(C4CCCC4)c3cc12
### Response 264

### Prompt Look up and report measured IC50 for this entry: Cc1c(-c2nsc(=O)o2)c(=O)oc2cc3occ(-c4ccc(Br)cc4)c3cc12
### Response 351

---

Exercise: for every item that follows, state its recorded IC50.
SYSTEM_NAME: Proteasome subunit beta type-8 (Homo sapiens, UniProt P28062)
RUN_DESCRIPTION: Inhibition of human immunoproteasome beta 5i subunit using Suc-LLVY-AMC as substrate preincubated for 30 mins followed by substrate addition and measured for 120 mins by fluorescence based assay
Express the result in nM but write the number alone.

### Prompt Look up and report measured IC50 for this entry: CCc1ccc(-c2coc3cc4oc(=O)c(-c5nsc(=O)o5)c(C)c4cc23)cc1
### Response 174

### Prompt Look up and report measured IC50 for this entry: Cc1c(-c2nsc(=O)o2)c(=O)oc2cc3occ(-c4ccc(F)cc4)c3cc12
### Response 200

### Prompt Look up and report measured IC50 for this entry: Cc1c(-c2nsc(=O)o2)c(=O)oc2cc3occ(-c4ccccc4)c3cc12
### Response 13

### Prompt Look up and report measured IC50 for this entry: Cc1c(-c2nsc(=O)o2)c(=O)oc2cc3occ(C4CCC4)c3cc12
### Response 433

### Prompt Look up and report measured IC50 for this entry: COc1ccccc1-c1coc2cc3oc(=O)c(-c4nsc(=O)o4)c(C)c3cc12
### Response 227

---

SYSTEM_NAME: Proteasome subunit beta type-8 (Homo sapiens)
RUN_DESCRIPTION: Inhibition of human immunoproteasome beta 5i subunit using Suc-LLVY-AMC as substrate assessed as residual activity at 10 uM preincubated for 30 mins followed by substrate addition measured for 120 mins by fluorescence based assay relative to control
Exercise: for every item that follows, state its recorded Activity.
Express the result in % but write the number alone.

### Prompt Look up and report measured Activity for this entry: Cc1c(CC(=O)ON2C(=O)CCC2=O)c(=O)oc2cc3occ(C4CCCCC4)c3cc12
### Response 62

### Prompt Look up and report measured Activity for this entry: Cc1c(CCC(=O)NCC#N)c(=O)oc2cc3occ(C4CCCCC4)c3cc12
### Response 102

### Prompt Look up and report measured Activity for this entry: Cc1c(CC(=O)NCC#N)c(=O)oc2cc3occ(C4CCCCC4)c3cc12
### Response 99

### Prompt Look up and report measured Activity for this entry: Cc1c(CC(=O)N(C)CC#N)c(=O)oc2cc3occ(C4CCCCC4)c3cc12
### Response 101

### Prompt Look up and report measured Activity for this entry: Cc1c(CCC(=O)N(C)CC#N)c(=O)oc2cc3occ(C4CCCCC4)c3cc12
### Response 111

---

Exercise: for every item that follows, state its recorded IC50.
SYSTEM_NAME: Proteasome subunit beta type-8 (Homo sapiens, UniProt P28062)
Sequence (P28062 whole entry): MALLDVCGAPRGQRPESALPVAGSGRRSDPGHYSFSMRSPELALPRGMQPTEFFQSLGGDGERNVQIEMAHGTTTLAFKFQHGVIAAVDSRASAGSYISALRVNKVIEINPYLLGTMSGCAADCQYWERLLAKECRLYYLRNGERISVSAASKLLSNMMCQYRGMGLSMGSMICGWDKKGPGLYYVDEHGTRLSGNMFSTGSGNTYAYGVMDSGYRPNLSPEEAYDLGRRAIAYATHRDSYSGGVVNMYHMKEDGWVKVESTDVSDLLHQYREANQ
RUN_DESCRIPTION: Inhibition of 20S immunoproteasome beta 5 chymotrypsin-like activity in human THP-1 cell lysates using Suc-LLVY-AMC as substrate preincubated for 30 mins followed by substrate addition and measured for 90 mins by fluorescence based assay
Assay type: subcellular, Lysate
Express the result in nM but write the number alone.

### Prompt State the measured IC50 (Proteasome subunit beta type-8 (Homo sapiens, UniProt P28062)) of CCc1ccc(-c2coc3cc4oc(=O)c(-c5nsc(=O)o5)c(C)c4cc23)cc1
### Response 1530

### Prompt State the measured IC50 (Proteasome subunit beta type-8 (Homo sapiens, UniProt P28062)) of Cc1c(-c2nsc(=O)o2)c(=O)oc2cc3occ(C4CCCCC4)c3cc12
### Response 1010

---

SYSTEM_NAME: Proteasome subunit beta type-10 (Homo sapiens)
RUN_DESCRIPTION: Inhibition of human immunoproteasome beta 2i subunit using Boc-LRR-AMC as substrate preincubated for 30 mins followed by substrate addition measured for 120 mins by fluorescence based assay
OUTCOME_MEASURE: IC50

Examples with answers:
# CHEMICAL_STRING, IC50
records = [
    ("Cc1c(-c2nsc(=O)o2)c(=O)oc2cc3occ(-c4ccc(Br)cc4)c3cc12", "Nd(Insoluble)"),
    ("Cc1c(-c2nsc(=O)o2)c(=O)oc2cc3occ(C4CCC4)c3cc12", "Nd(Insoluble)"),
    ("Cc1c(-c2nsc(=O)o2)c(=O)oc2cc3occ(C4CCCC4)c3cc12", "Nd(Insoluble)"),
    ("COc1cccc(-c2coc3cc4oc(=O)c(-c5nsc(=O)o5)c(C)c4cc23)c1", "Nd(Insoluble)"),
]

Now examine the next entry.
### Prompt Look up and report measured IC50 for this entry: COc1ccccc1-c1coc2cc3oc(=O)c(-c4nsc(=O)o4)c(C)c3cc12
### Response Nd(Insoluble)

---

SYSTEM_NAME: Proteasome subunit beta type-10 (Homo sapiens) (UniProt P40306)
Sequence (whole entry): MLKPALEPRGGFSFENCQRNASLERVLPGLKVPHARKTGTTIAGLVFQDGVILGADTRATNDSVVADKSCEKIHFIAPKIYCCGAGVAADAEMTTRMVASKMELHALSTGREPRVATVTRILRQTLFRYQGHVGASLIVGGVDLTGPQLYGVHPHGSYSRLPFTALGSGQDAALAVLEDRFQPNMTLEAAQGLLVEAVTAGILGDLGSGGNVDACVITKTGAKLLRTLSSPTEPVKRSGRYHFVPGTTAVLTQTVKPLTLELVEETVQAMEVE
RUN_DESCRIPTION: Inhibition of human immunoproteasome beta 2i subunit at 10 uM using Boc-LRR-AMC as substrate preincubated for 30 mins followed by substrate addition measured for 120 mins by fluorescence based assay
Calls of active or inactive are those of the source. No cut-off for these calls is given here.

# CHEMICAL_STRING, inhibition
measured = [
    ("CCc1ccc(-c2coc3cc4oc(=O)c(-c5nsc(=O)o5)c(C)c4cc23)cc1", "inactive"),
    ("COc1ccccc1-c1coc2cc3oc(=O)c(-c4nsc(=O)o4)c(C)c3cc12", "inactive"),
    ("Cc1cccc(-c2coc3cc4oc(=O)c(-c5nsc(=O)o5)c(C)c4cc23)c1", "inactive"),
]
